- Tested on: nitric oxide (NO) released from SW480 cells
- testMethodNotes: Nitric oxide inhibition, GREISS assay, LPS-induced SW480 cells
- Type: cell-based, human
- statedConditions: 10 µM, LPS-induced SW480 cells; mean ± SEM, n = 3
experimentalReadout: % inhibition of NO released

1. O=C(O)c1ccc(CC2(C3=Cc4ccccc4C3)Cc3ccccc3C2)cc1	inhibited NO production
2. COc1c(O)cc2oc3cc(O)c(CC=C(C)C)c(O)c3c(=O)c2c1CC=C(C)C [α-mangostin, reference compound]	61.63 ± 7.50%
3. O=C1c2ccccc2C[C@@]1(Cc1ccccc1)C1=Cc2ccccc2C1	inhibited NO production
4. O=C(O)c1ccc(C[C@@]2(C3=Cc4ccccc4C3)Cc3ccccc3C2=O)cc1	inhibited NO production
